The following compounds are shown together with reported Nutsedge, Yellow plant response rating (0 to 100 scale) values.
Test system: yellow nutsedge (Cyperus esculentus)
Protocol Details: Test B pre-/postemergence plant response
Assay type: in vivo
Setup Conditions: 62 g ai/ha, postemergence; 0 is no effect, 100 is complete control; 13 to 15 days
Give only the figure.

compound=CCCc1ncc(C(=O)C2=C(O)CCCC2=O)c(=O)n1CCC target_or_test_system="yellow nutsedge (Cyperus esculentus)" val=65
compound=CCOCCn1c(-c2ccccc2)ncc(C(=O)C2=C(O)CCCC2=O)c1=O target_or_test_system="yellow nutsedge (Cyperus esculentus)" val=70
compound="O=C1CCCC(O)=C1C(=O)c1cnc(-c2cccs2)n(CC2CCCO2)c1=O (centres unmarked)" target_or_test_system="yellow nutsedge (Cyperus esculentus)" val=65
compound=O=C1CCCC(O)=C1C(=O)c1cnc(-c2cccc(Br)c2)n(-c2ccccc2)c1=O target_or_test_system="yellow nutsedge (Cyperus esculentus)" val=10
compound="O=C1CCCC(O)=C1C(=O)c1cnc(-c2ccsc2)n(CC2CCCO2)c1=O (centres unmarked)" target_or_test_system="yellow nutsedge (Cyperus esculentus)" val=60

IN: Given the compound CCCc1ncc(C(=O)C2=C(O)CCCC2=O)c(=O)n1-c1cccc(C)c1 , write its reported Nutsedge, Yellow plant response rating (0 to 100 scale).
OUT: 60

IN: Given the compound COCCn1c(-c2ccco2)ncc(C(=O)C2=C(O)CCCC2=O)c1=O , write its reported Nutsedge, Yellow plant response rating (0 to 100 scale).
OUT: 75

IN: Given the compound CCCCCCn1c(-c2ccccc2)ncc(C(=O)C2=C(O)CCCC2=O)c1=O , write its reported Nutsedge, Yellow plant response rating (0 to 100 scale).
OUT: 20

====

The following molecules are shown together with reported Ryegrass, Italian plant response rating (0 to 100 scale) values.
System: Italian ryegrass (Lolium multiflorum)
Protocol Details: Test B pre-/postemergence plant response
Assay type: in vivo
Setup Conditions: 62 g ai/ha, postemergence; 0 is no effect, 100 is complete control; 13 to 15 days

molecule="CC(C)Cc1ncc(C(=O)C2=C(O)CCCC2=O)c(=O)n1-c1ccccc1 [Compound 68]" val=5
molecule="CCCn1c(-c2cccc(F)c2)ncc(C(=O)C2=C(O)CCCC2=O)c1=O [Compound 127]" val=5
molecule="COCCn1c(-c2cccs2)ncc(C(=O)C2=C(O)CCCC2=O)c1=O [Compound 108]" val=0

Now for another entry.
IN: Given the molecule CCn1c(-c2cc(F)cc(F)c2)ncc(C(=O)C2=C(O)CCCC2=O)c1=O [Compound 122] , write its reported Ryegrass, Italian plant response rating (0 to 100 scale).
OUT: 10

====

The following molecules are shown together with reported Plant response rating, Pigweed values.
System: pigweed (Amaranthus retroflexus)
Protocol Details: Test A pre-/postemergence plant response
Assay type: in vivo
Setup Conditions: Preemergence, 500 g ai/ha; visual injury, 0 to 100 scale (0 no effect, 100 complete control), approx. ten days
Give only the figure.

Consider the worked cases shown below.
molecule="Cc1ccc(F)c(-n2c(-c3ccccc3)ncc(C(=O)C3=C(O)CCCC3=O)c2=O)c1 [Compound 51]" target_or_test_system="pigweed (Amaranthus retroflexus)" assay_metric="Plant response rating, Pigweed" val=100
molecule="O=C1CCCC([O-])=C1C(=O)c1cnc(-c2ccccc2)n(-c2ccc(Cl)cc2)c1=O.[K+] [Compound 13]" target_or_test_system="pigweed (Amaranthus retroflexus)" assay_metric="Plant response rating, Pigweed" val=100

IN: Given the molecule COCCCn1c(-c2cccc(Cl)c2)ncc(C(=O)C2=C(O)CCCC2=O)c1=O [Compound 143] , write its reported Plant response rating, Pigweed.
OUT: 90

IN: Given the molecule Cc1cccc(-n2c(-c3cccc(Cl)c3)ncc(C(=O)C3=C(O)CCCC3=O)c2=O)c1 [Compound 45] , write its reported Plant response rating, Pigweed.
OUT: 100

IN: Given the molecule Cc1ccc(-n2c(-c3ccccc3)ncc(C(=O)C3=C(O)CCCC3=O)c2=O)c(Cl)c1 [Compound 41] , write its reported Plant response rating, Pigweed.
OUT: 90

IN: Given the molecule Cc1ccc(F)cc1-n1c(-c2cccc(Br)c2)ncc(C(=O)C2=C(O)CCCC2=O)c1=O [Compound 154] , write its reported Plant response rating, Pigweed.
OUT: 80

IN: Given the molecule O=C1CCCC(O)=C1C(=O)c1cnc(-c2cccs2)n(CC2CCCO2)c1=O (centres unmarked) [Compound 109] , write its reported Plant response rating, Pigweed.
OUT: 100

IN: Given the molecule COCCn1c(-c2cccs2)ncc(C(=O)C2=C(O)CCCC2=O)c1=O [Compound 108] , write its reported Plant response rating, Pigweed.
OUT: 100

IN: Given the molecule CC(C)Cc1ncc(C(=O)C2=C(O)CCCC2=O)c(=O)n1-c1ccccc1 [Compound 68] , write its reported Plant response rating, Pigweed.
OUT: 100

IN: Given the molecule O=C1CCCC(O)=C1C(=O)c1cnc(-c2ccsc2)n(CC2CCCO2)c1=O (centres unmarked) [Compound 98] , write its reported Plant response rating, Pigweed.
OUT: 100

IN: Given the molecule CCCn1c(-c2cccc(OC)c2)ncc(C(=O)C2=C(O)CCCC2=O)c1=O [Compound 100] , write its reported Plant response rating, Pigweed.
OUT: 100

Measured values drawn from patent US8952024B2 for this set.
